Test: Maximum plasma concentration measured in mouse after intravenous administration of 1 mg/kg
Type: ADME, organism-based
Parameters: dose 1 mg/kg, route intravenous
Recorded Cmax for the following compounds
Please answer in the form of a number followed by its unit of measurement.

CCC(CC)C(=O)Nc1sc(-c2nc(Cc3ccc(Cl)cc3Cl)no2)c(C)c1C#N 800 nM

Return the recorded Cmax value; entry: CCC(CC)C(=O)Nc1sc(-c2nc(CC(C)C)no2)c(C)c1C#N
800 nM

* * *

Assay: Bioavailability in mouse (dose 1 mg/kg i.v.)
Assay type: ADME, organism-based
Details: in vivo, iv
reported_endpoint: bioavailability (%)
Reply numerically in %, unit not repeated.

Examples with their reported bioavailability follow.
molecule	unit_tag	bioavailability
CCC(CC)C(=O)Nc1sc(-c2nc(CC(C)C)no2)c(C)c1C#N	%	39
CCC(CC)C(=O)Nc1sc(-c2nc(Cc3ccc(Cl)cc3Cl)no2)c(C)c1C#N	%	36

Return the recorded bioavailability value; entry: CCC(CC)C(=O)Nc1sc2c(c1C#N)CCC(N(C)Cc1ccc(Cl)cc1Cl)C2 (stereo not drawn)
9.2

* * *

Recorded pIC50 for the following compounds
Target: Glucagon receptor (Homo sapiens, UniProt P47871)
Sequence (P47871 whole entry): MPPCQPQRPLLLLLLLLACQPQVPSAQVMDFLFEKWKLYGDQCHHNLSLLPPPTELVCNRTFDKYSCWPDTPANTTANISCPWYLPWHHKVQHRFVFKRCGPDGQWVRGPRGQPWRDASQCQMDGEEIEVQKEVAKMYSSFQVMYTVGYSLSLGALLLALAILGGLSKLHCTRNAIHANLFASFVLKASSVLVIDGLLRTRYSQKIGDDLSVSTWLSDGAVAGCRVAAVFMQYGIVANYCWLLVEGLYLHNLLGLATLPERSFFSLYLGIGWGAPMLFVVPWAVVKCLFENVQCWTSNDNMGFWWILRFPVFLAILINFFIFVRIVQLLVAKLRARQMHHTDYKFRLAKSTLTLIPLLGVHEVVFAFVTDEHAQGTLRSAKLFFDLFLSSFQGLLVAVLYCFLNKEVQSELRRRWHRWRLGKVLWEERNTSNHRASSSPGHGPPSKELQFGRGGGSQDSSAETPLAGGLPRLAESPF
Assay: Inhibition of glucagon induced cAMP accumulation in human glucagon receptor transfected CHO cells
Format: functional, cell-based
// field semantics: pIC50 = negative decimal log of concentration (mol/L)

Examples with their reported pIC50 follow.
compound	pIC50
CCC(CC)C(=O)Nc1sc2c(c1C#N)CCC(C(C)(C)CC)C2 (stereo not drawn)	6.89
CCC(CC)C(=O)Nc1sc2c(c1C#N)CCC(N(C)Cc1ccc(Cl)cc1Cl)C2 (stereo not drawn)	7.20

Return the recorded pIC50 value; entry: CCC(CC)C(=O)Nc1sc2c(c1C#N)CCC(N(C)C1CCCc3ccccc31)C2 (single isomer, unassigned; form 1)
6.80

All values here come from ChEMBL document CHEMBL1142008.
